- System: MDA-MB-435 melanoma
- ASSAY COMMENT: NCI-60 one-dose screen, 48 h
- ASSAY CONTEXT: 10 µM unless noted
This is part of a sample that, as a whole, favours compounds with a hit. Of some 83,000 tested, about 20% had one in any assay. Activity calls are given as the source filed them. Rule for the calls: active = growth percent below 10; inactive = the rest.
Labels: 1 for active, -1 for inactive

In [3]: df
Out[3]:
                  compound_structure_string  qualitative_label
0              CN(CCNCc1ccccn1)CCNCc1ccccn1                  1
1  CCN1CCN(Cc2ccc(NC(=O)Nc3cccc(-n4ccc5c(NC(=O)c6ccccc6)nccc54)c3)cc2C(F)(F)F)CC1                  1
2  COc1ccc(-c2ccc(NC(=O)Nc3ccc(Cl)c(C(F)(F)F)c3)c(C)n2)cc1                 -1
3  CS(=O)(=O)OCC(COS(C)(=O)=O)C(c1ccccc1)c1ccccc1                 -1
4  COc1cccc(-c2nc3sccn3c2-c2ccnc(NCCNC(=O)Nc3cccc(C(F)(F)F)c3)n2)c1                 -1

----------
- Tested on: COLO 205 colon
- ASSAY COMMENT: NCI-60 one-dose screen, 48 h (100 = growth as untreated, 0 = no growth, -100 = all killed)
- ASSAY CONTEXT: 10 µM unless noted
The panel holds about 83,000 compounds, 20% with a hit somewhere; the sample as a whole holds those more often.
Kind request: treat 80% as inclusive, so growth at 80% or higher is YES, anything lower is NO.

                                    compound  qualitative_label
 0        CC(=O)Oc1ccc(C(OC(C)=O)OC(C)=O)cc1                YES
 1  CCC(N)(C(=O)O)c1ccc(F)cc1 (configuration not stated)                YES
 2        CCCCCC/C=N/Nc1ccc([N+](=O)[O-])cn1                YES
 3                    COC1=C(OC)C(=O)C=CC1=O                YES
 4  COc1ccc(-c2ccc(NC(=O)Nc3cccc(C(F)(F)F)c3)c(C)n2)cc1                YES
 5  Cc1ccc2oc(=O)cc(C3C(C#N)=C(N)Oc4c3ccc3ccccc43)c2c1 (configuration not stated)                 NO
 6  O=c1c2ccccc2sc2c(NCCN3CCOCC3)nc3ccccc3c12                 NO
 7  COc1ccc(C[C@H](N)C(=O)N[C@@H]2[C@@H](CO)OC(n3cnc4c(N(C)C)ncnc43)[C@@H]2O)cc1 (some centres not stated)                 NO
 8  COC(=O)c1ccc(NC(N)=NCC(C)(C)COc2ccc(C(F)(F)F)cc2)nc1                 NO
 9  COc1ccc(-c2nn(-c3cccc(Cl)c3)cc2-c2cc(-c3ccc(Br)cc3)[nH]c(=O)c2C#N)cc1                YES
10  CC(Cc1cccc(C(F)(F)F)c1)NCCOC(=O)c1ccccc1 (configuration not stated)                YES
11  O=C(COc1ccc(Cl)cc1)N1CCN(Cc2ccc3c(c2)OCO3)CC1                YES
12  COCCNC(C(=O)c1ccccc1)c1ccccc1 (configuration not stated)                YES
13  Cc1nccc2c3ccc(OCc4cn(-c5ccc(Br)cc5)nn4)cc3n(CCCc3ccccc3)c12                 NO
14       CCCCOc1c(N)cc(Cl)cc1C(=O)OCCN(CC)CC                YES
15  COc1cc(CN(c2ccc(Cl)cc2)C2OC(=O)c3ccccc32)cc(OC)c1OC (configuration not stated)                 NO
16  CC(C(C(=O)N1CCCCC1)N1CCCCC1)N1CCCCC1 (configuration not stated)                YES
17  O=C(Nc1ccc(F)cc1)Nc1ccc(Br)c(C(F)(F)F)c1                 NO
18  COC(=O)CCCNS(=O)(=O)c1cc(C(=O)Nc2ccc(NC(=O)c3cc(S(=O)(=O)NCCCC(=O)OC)c(O)c(O)c3O)cc2)c(O)c(O)c1O                YES
19  O=C(N/N=C1\SCC(=O)N1c1ccccc1)c1cc(-c2cc3ccccc3o2)nn1-c1ccccc1                YES
20       CCN(CC)C(=O)C1CCN(C(=O)c2ccccc2)CC1                YES

----------
- Test system: SK-MEL-5 melanoma
- ASSAY COMMENT: NCI-60 one-dose screen, 48 h
- ASSAY CONTEXT: 10 µM unless noted
The panel holds about 83,000 compounds, 20% with a hit somewhere; the sample as a whole holds those more often. The source made the active and inactive calls. The calls were made as follows: active = growth percent below 10; inactive = the rest.
Outcome codes: TRUE (active), FALSE (inactive)

COMPOUND	QUALITATIVE LABEL
COc1ccccc1P(c1ccccc1OC)c1ccccc1OC	FALSE
COc1cc(/C=C/C(=O)c2c(C)[n+]([O-])c3ccccc3[n+]2[O-])ccc1O	FALSE
CC(=O)Nc1ccc([I+]c2ccc([N+](=O)[O-])cc2)cc1	FALSE
COc1cc(C(=O)NNC(=O)c2ccccc2C(=O)O)cc(OC)c1OC	FALSE
CCOC(=O)C1CSC(C)(C(=O)OCC)N1 (stereo not given)	FALSE
COc1ccc(Cl)cc1NC(=O)c1cc2c(n1C)-c1nc(NC(=O)C(C)C)sc1CC2	FALSE
S=C=NP1(N=C=S)=NP(N=C=S)(N=C=S)=NP(N=C=S)(N=C=S)=NP(N=C=S)(N=C=S)=N1 (stereo not given)	FALSE
Cc1ccc2c(C3C(C#N)=C(N)Oc4cc5ccccc5cc43)cc(=O)oc2c1 (stereo not given)	FALSE
CCC(N)(C(=O)O)c1ccc(F)cc1 (stereo not given)	FALSE
CCOC(=O)c1noc2c1CCc1c-2cn(Cc2ccc(OC)cc2)c1-c1cc(OC)c(OC)c(OC)c1	FALSE
Nc1nc2ccc(CNc3ccc(C(=O)NC(CC(=O)O)C(=O)O)cc3)cc2c(=O)[nH]1 (stereo not given)	FALSE
O=C(Nc1cccc(-n2ccc3c(NC(=O)c4ccccc4)nccc32)c1)Nc1ccc(Cl)c(C(F)(F)F)c1	TRUE
C[C@H]1C=C(C[C@@H](O)CC#CC#CCCCCC[C@@H](O)[C@H]2CCC(=O)O2)C(=O)O1	FALSE
CC(=O)Nc1ccc(OC(=O)c2ccccc2O)cc1	FALSE
O=C(Nc1ccc(Cl)c(Cl)c1)Nc1ccc(Cl)c([N+](=O)[O-])c1	TRUE
COc1cccc(-c2nc3sccn3c2-c2ccnc(NCCNC(=O)Nc3cccc(C(F)(F)F)c3)n2)c1	FALSE
Nc1ccc(S(=O)(=O)Nc2cc(I)cc(I)c2)cc1	FALSE
CCN(CC)c1ccc(C2CC(c3cc(OC)c(OC)c(OC)c3)=NN2)cc1 (stereo not given)	TRUE
O=C(COc1ccc(Cl)cc1Cl)N1N=C(c2ccc(Cl)cc2Cl)CC1(O)c1cc(F)c(Cl)cc1Cl (stereo not given)	FALSE
Cc1c(F)cccc1NC(=O)c1sc2nc3c(cc2c1N)CCCCC3	FALSE
O=C(O)c1ccc2nc(-c3ccc(OCCCCCOc4ccc(-c5nc6ccc(C(=O)O)cc6[nH]5)cc4)cc3)[nH]c2c1	TRUE
O=C(Cn1c2ccccc2c2ccncc21)N/N=C/c1c[nH]c2ccccc12	TRUE
Oc1ccccc1/C=N/c1ccccn1	FALSE
CCCCOc1c(N)cccc1C(=O)OCCN(CC)CC	FALSE
CCCCCCCCCCCCCCCC(=O)NS(=O)(=O)OC[C@H]1O[C@@H](n2cnc3c(N)ncnc32)[C@H](O)[C@@H]1O	TRUE
COc1ccc2c(c1)O/C(=C/c1ccc(OCC(=O)Nc3ccc(S(N)(=O)=O)cc3)cc1)C2=O	FALSE
CCCCOc1nc2ccc(Cl)cc2cc1/C=C/C(=O)/C=C/c1ccc(OC)cc1	FALSE
COc1cc([C@@H]2c3cc4c(cc3C(OC3O[C@@H]5COC(C)O[C@H]5[C@H](O)[C@H]3O)C3COC(=O)[C@@H]32)OCO4)cc(OC)c1O (stereo not given in full)	FALSE
O=[N+]([O-])c1cccc(C2c3ccccc3Oc3ccccc32)c1	FALSE
C[C@]12CC[C@@H]3c4ccc(O)c(N)c4CC[C@H]3[C@@H]1CC[C@@H]2O	FALSE
COc1cc(/C=C/C(=O)c2c(C)n([O-])c3cc(C)c(C)cc3[n+]2=O)cc(OC)c1OC	FALSE
C=C1C(=O)O[C@H]2[C@H]1CC/C(COC(=O)OC/C1=C/CC[C@@]3(C)O[C@H]3[C@H]3OC(=O)[C@@H](CN(C)C)[C@@H]3CC1)=C\CC[C@@]1(C)O[C@@H]21	FALSE
N#Cc1c(N)nc(Cl)c(C#N)c1C(=O)c1ccccc1	FALSE
Cc1ccc[n+](CC(=O)c2cccc3ccccc23)c1	FALSE
CCCCCC/C=N/Nc1ccc([N+](=O)[O-])cn1	FALSE
COc1ccc(NC(=O)Nc2ccc(-c3ccc(OC)c(OC)c3)nc2C)cc1	FALSE
NS(=O)(=O)c1ccc(-n2nc(-c3ccc(Cl)cc3)ccc2=O)cc1	FALSE
COC1OCC(OS(=O)(=O)c2ccc(C)cc2)C(OC(=O)c2ccccc2)C1OC(=O)c1ccccc1 (stereo not given)	FALSE
CCOc1cccc(Nc2nc(N)nc3[nH]c4ccc(O)cc4c23)c1	FALSE
Cc1ccc(N(CC2=NCCN2)c2cccc(O)c2)cc1	FALSE
